B1: POU domain, class 3, transcription factor 2, residues 356 to 411; numbered along this chain, P20265 (parent)
chain: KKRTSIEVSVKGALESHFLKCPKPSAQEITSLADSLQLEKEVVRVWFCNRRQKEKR

# Variants of: B1
# test.summary: abundance fitness (aPCA) (normalised: wild type 0, dead -1); higher = more abundant; growth selection in yeast, the domain comes from the species named
# condition.context: Homo sapiens
Think of -0.2 as a floor: if abundance fitness stands on it or above, it is Condition met; beneath it, Condition not met.

See these solved cases before continuing.
INSERT INTO assay_data (mutant_code, group) VALUES
  ('K11A', 'Condition met'),
  ('W46H', 'Condition not met'),
  ('F47K', 'Condition not met');

API: above_or_equal(metric=abundance fitness, cutoff=-0.2) for item N49I
Condition not met

Next variant up: P22F
Condition not met

Next variant up: R44M
Condition not met

Next variant up: E41V
Condition not met

Next variant up: H17I
Condition not met

Next variant up: L36Y
Condition met
